# System: Fatty-acid amide hydrolase 1 (Rattus norvegicus)
# Sequence (P97612 whole entry): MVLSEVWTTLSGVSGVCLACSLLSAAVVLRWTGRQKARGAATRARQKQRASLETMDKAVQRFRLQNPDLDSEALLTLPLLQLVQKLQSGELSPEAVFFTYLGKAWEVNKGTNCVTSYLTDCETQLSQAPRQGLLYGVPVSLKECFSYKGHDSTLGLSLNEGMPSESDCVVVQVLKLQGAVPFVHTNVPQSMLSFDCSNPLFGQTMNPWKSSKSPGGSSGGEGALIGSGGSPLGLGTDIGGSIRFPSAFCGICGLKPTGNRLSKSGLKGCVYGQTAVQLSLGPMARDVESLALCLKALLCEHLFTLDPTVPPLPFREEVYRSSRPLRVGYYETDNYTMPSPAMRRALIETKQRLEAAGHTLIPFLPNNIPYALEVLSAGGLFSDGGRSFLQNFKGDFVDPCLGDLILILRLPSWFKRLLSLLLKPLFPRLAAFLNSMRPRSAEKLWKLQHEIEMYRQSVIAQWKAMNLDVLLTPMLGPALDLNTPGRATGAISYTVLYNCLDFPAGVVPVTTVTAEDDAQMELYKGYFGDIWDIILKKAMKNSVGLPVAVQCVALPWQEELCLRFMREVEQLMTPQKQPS
Compiled IC50 measurements on Fatty-acid amide hydrolase 1 (Rattus norvegicus) taken from the literature.
Numeric only. Scale: nM

IN: Given O=C(Nc1ccc(-n2cccn2)nc1)N1CC2(CCN(Cc3cccc(Oc4ccc(Cl)cc4)c3)CC2)C1 , respond with its IC50.
OUT: 133

IN: Given Cc1c(C2CCCN(c3nccc(-c4cc5ccccc5s4)n3)C2)c2cccnc2n1CCO (racemic) , respond with its IC50.
OUT: 53

IN: Given Cc1ccc2nc(-c3ccc(NC(=O)C4CN(S(=O)(=O)c5cccs5)C4)cc3)sc2c1 , respond with its IC50.
OUT: 210

IN: Given O=C(Nc1ccccc1)N1CCN(c2nc(-c3ccccc3)ns2)CC1 , respond with its IC50.
OUT: 10

IN: Given O=C(Nc1cccc2nonc12)N1CCN(Cc2cccc(Oc3ccc(Cl)cc3)c2)CC1 , respond with its IC50.
OUT: 120

IN: Given CC(=O)Nc1ccc(OC(=O)CNC(=O)c2ccc(Nc3ccnc(C(F)(F)F)c3)cc2)cc1 , respond with its IC50.
OUT: 870

IN: Given CC(=O)Nc1ccc(OC(=O)CNC(=O)Cc2ccc(Nc3ccnc(C(F)(F)F)c3)cc2)cc1 , respond with its IC50.
OUT: 2600
